- assayedTarget: Neuraminidase (Influenza A virus)
- Set-up: species or system chicken/china/1220/2012(H5N1)
quantityName: IC50 (µM)
Just the number in µM, nothing appended.

CCC(CC)O[C@@H]1C=C(C(=O)N[C@H](C(=O)O)C(C)C)C[C@H](N)[C@H]1NC(C)=O: 0.342
CCC(CC)O[C@@H]1C=C(C(=O)NCCN2CCOCC2)C[C@H](N)[C@H]1NC(C)=O: 4.24
CCC(CC)O[C@@H]1C=C(C(=O)N(C)CCc2cccc(F)c2)C[C@H](N)[C@H]1NC(C)=O: 2.65
CCC(CC)O[C@@H]1C=C(C(=O)Nc2ccc(F)cc2)C[C@H](N)[C@H]1NC(C)=O: 11.7
CCC(CC)O[C@@H]1C=C(C(=O)NCc2ccc(C(F)(F)F)cc2)C[C@H](N)[C@H]1NC(C)=O: 10.9

Suppose we examine the compound CCC(CC)O[C@@H]1C=C(C(=O)NCC(=O)O)C[C@H](N)[C@H]1NC(C)=O ; what IC50 value has been reported?
2.53

Suppose we examine the compound CCC(CC)O[C@@H]1C=C(C(=O)NCc2ccc(-c3ccccc3)cc2)C[C@H](N)[C@H]1NC(C)=O ; what IC50 value has been reported?
0.96

Suppose we examine the compound CCC(CC)O[C@@H]1C=C(C(=O)NCc2ccc(C)cc2)C[C@H](N)[C@H]1NC(C)=O ; what IC50 value has been reported?
2.91

Suppose we examine the compound CCC(CC)O[C@@H]1C=C(C(=O)NCc2ccccc2F)C[C@H](N)[C@H]1NC(C)=O ; what IC50 value has been reported?
6.26

###

- assayExplanation: Cytotoxicity against chicken embryo fibroblasts assessed as reduction in cell viability after 2 days by CCK-8 assay
- Format: cell-based, Gallus gallus, Fibroblast
quantityName: CC50 at 48 h

CCC(CC)O[C@@H]1C=C(C(=O)N[C@@H](C(=O)O)C(C)C)C[C@H](N)[C@H]1NC(C)=O: > 1 mM

Suppose we examine the molecule CCC(CC)O[C@@H]1C=C(C(=O)O)C[C@H](N)[C@H]1NC(C)=O [OSELTAMIVIR CARBOXYLATE] ; what CC50 at 48 h value has been reported?
> 1 mM

###

Each item that follows carries a reported IC50.
- assayedTarget: Neuraminidase (Influenza A virus)
- Set-up: species or system chicken/china/1220/2012(H5N1)
Just the number in µM, nothing appended.

Some molecules with recorded IC50:
CCC(CC)O[C@@H]1C=C(C(=O)NCCc2cccc(F)c2)C[C@H](N)[C@H]1NC(C)=O: 15.2
CCC(CC)O[C@@H]1C=C(C(=O)NCc2cccc(Cl)c2)C[C@H](N)[C@H]1NC(C)=O: 3.02
CCC(CC)O[C@@H]1C=C(C(=O)NCc2ccc(Br)cc2)C[C@H](N)[C@H]1NC(C)=O: 2.07

Attention now shifts to the item below.
Suppose we examine the molecule CCC(CC)O[C@@H]1C=C(C(=O)N[C@H](C(=O)O)C(C)C)C[C@H](N)[C@H]1NC(C)=O ; what IC50 value has been reported?
0.135

###

- assayedTarget: Neuraminidase (Influenza A virus, UniProt B4URF0)
- Sequence (B4URF0 whole entry): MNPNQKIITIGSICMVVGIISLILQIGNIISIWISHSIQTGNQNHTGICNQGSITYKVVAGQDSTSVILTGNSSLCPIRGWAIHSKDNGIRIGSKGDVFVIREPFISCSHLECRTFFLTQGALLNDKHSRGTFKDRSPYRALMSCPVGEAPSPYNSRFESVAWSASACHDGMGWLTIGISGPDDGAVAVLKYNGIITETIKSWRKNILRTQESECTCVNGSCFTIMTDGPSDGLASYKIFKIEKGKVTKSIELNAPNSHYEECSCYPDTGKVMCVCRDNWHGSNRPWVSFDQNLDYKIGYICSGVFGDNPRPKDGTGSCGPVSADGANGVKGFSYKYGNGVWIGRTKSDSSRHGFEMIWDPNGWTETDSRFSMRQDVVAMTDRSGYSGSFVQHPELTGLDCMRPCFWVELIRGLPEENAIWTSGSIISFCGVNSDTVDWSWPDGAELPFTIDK
- Set-up: species or system duck/Guangdong/674/2014(H5N6)
quantityName: IC50 (µM)
Just the number in µM, nothing appended.

CCC(CC)O[C@@H]1C=C(C(=O)Nc2ccc(N3CCOCC3=O)cc2)C[C@H](N)[C@H]1NC(C)=O: 2.27
CCC(CC)O[C@@H]1C=C(C(=O)NCc2cccc(F)c2)C[C@H](N)[C@H]1NC(C)=O: 11.4
CCC(CC)O[C@@H]1C=C(C(=O)N(C)CCc2cccc(F)c2)C[C@H](N)[C@H]1NC(C)=O: 2.51
CCC(CC)O[C@@H]1C=C(C(=O)NCC(=O)O)C[C@H](N)[C@H]1NC(C)=O: 2.16

Item: CCC(CC)O[C@@H]1C=C(C(=O)N[C@@H](C)C(=O)O)C[C@H](N)[C@H]1NC(C)=O Test system: Neuraminidase (Influenza A virus, UniProt B4URF0) Read-out: IC50 Value: ?
1.28

Item: CCC(CC)O[C@@H]1C=C(C(=O)NCCc2ccccc2F)C[C@H](N)[C@H]1NC(C)=O Test system: Neuraminidase (Influenza A virus, UniProt B4URF0) Read-out: IC50 Value: ?
5.12

Item: CCC(CC)O[C@@H]1C=C(C(=O)N[C@H](C)C(=O)O)C[C@H](N)[C@H]1NC(C)=O Test system: Neuraminidase (Influenza A virus, UniProt B4URF0) Read-out: IC50 Value: ?
1.07

Item: CCC(CC)O[C@@H]1C=C(C(=O)NCCN2CCOCC2)C[C@H](N)[C@H]1NC(C)=O Test system: Neuraminidase (Influenza A virus, UniProt B4URF0) Read-out: IC50 Value: ?
12.1

Item: CCC(CC)O[C@@H]1C=C(C(=O)NCc2ccc(C(F)(F)F)cc2)C[C@H](N)[C@H]1NC(C)=O Test system: Neuraminidase (Influenza A virus, UniProt B4URF0) Read-out: IC50 Value: ?
8.78

###

- assayedTarget: Neuraminidase (Influenza A virus, UniProt B4URF0)
- Set-up: species or system duck/Guangdong/674/2014(H5N6)
quantityName: IC50

CCC(CC)O[C@@H]1C=C(C(=O)NCc2ccc(F)cc2Cl)C[C@H](N)[C@H]1NC(C)=O: 19400 nM
CCC(CC)O[C@@H]1C=C(C(=O)N[C@@H](C(=O)O)C(C)C)C[C@H](N)[C@H]1NC(C)=O: 96.7 nM

Suppose we examine the compound CCC(CC)O[C@@H]1C=C(C(=O)NCc2ccc(-c3ccccc3)cc2)C[C@H](N)[C@H]1NC(C)=O ; what IC50 value has been reported?
990 nM

Suppose we examine the compound CCC(CC)O[C@@H]1C=C(C(=O)NCc2cc(F)cc(F)c2)C[C@H](N)[C@H]1NC(C)=O ; what IC50 value has been reported?
10400 nM

Suppose we examine the compound CCC(CC)O[C@@H]1C=C(C(=O)NCc2ccc(F)cc2)C[C@H](N)[C@H]1NC(C)=O ; what IC50 value has been reported?
2780 nM

Suppose we examine the compound C=CCNC(=O)C1=C[C@@H](OC(CC)CC)[C@H](NC(C)=O)[C@@H](N)C1 ; what IC50 value has been reported?
410 nM

Suppose we examine the compound CCC(CC)O[C@@H]1C=C(C(=O)NCc2ccccc2F)C[C@H](N)[C@H]1NC(C)=O ; what IC50 value has been reported?
14700 nM

###

- assayedTarget: Neuraminidase (Influenza A virus, UniProt B4URF0)
- Set-up: species or system chicken/china/1220/2012(H5N1)
Each item that follows carries a reported IC50.
Just the number in µM, nothing appended.

CCC(CC)O[C@@H]1C=C(C(=O)NCc2ccc(-c3cccs3)cc2)C[C@H](N)[C@H]1NC(C)=O: 7.75

Suppose we examine the molecule CCC(CC)O[C@@H]1C=C(C(=O)N[C@H](C)C(=O)O)C[C@H](N)[C@H]1NC(C)=O ; what IC50 value has been reported?
1.35

Suppose we examine the molecule CCC(CC)O[C@@H]1C=C(C(=O)NCc2ccc(F)cc2)C[C@H](N)[C@H]1NC(C)=O ; what IC50 value has been reported?
0.94

Suppose we examine the molecule CCC(CC)O[C@@H]1C=C(C(=O)N[C@@H](C(=O)O)C(C)C)C[C@H](N)[C@H]1NC(C)=O ; what IC50 value has been reported?
0.0883

Suppose we examine the molecule CCC(CC)O[C@@H]1C=C(C(=O)NCc2ccc(F)cc2Cl)C[C@H](N)[C@H]1NC(C)=O ; what IC50 value has been reported?
3.91

Suppose we examine the molecule CCC(CC)O[C@@H]1C=C(C(=O)NCCc2ccccc2F)C[C@H](N)[C@H]1NC(C)=O ; what IC50 value has been reported?
3.17

Suppose we examine the molecule CCC(CC)O[C@@H]1C=C(C(=O)Nc2ccc(N3CCOCC3=O)cc2)C[C@H](N)[C@H]1NC(C)=O ; what IC50 value has been reported?
1.46

Suppose we examine the molecule CCC(CC)O[C@@H]1C=C(C(=O)N[C@@H](C)C(=O)O)C[C@H](N)[C@H]1NC(C)=O ; what IC50 value has been reported?
2.2

###

- assayedTarget: Neuraminidase (Influenza A virus)
- Design: species or system chicken/china/1220/2012(H5N1)
Field 'label' (enum: Fulfilled / Not fulfilled). Set to Fulfilled when IC50 is strictly under 10 µM; else Not fulfilled.

Look over these answered cases.
CCC(CC)O[C@@H]1C=C(C(=O)NCc2ccc(-c3ccsc3)cc2)C[C@H](N)[C@H]1NC(C)=O: Not fulfilled
CCC(CC)O[C@@H]1C=C(C(=O)NCc2cc(F)cc(F)c2)C[C@H](N)[C@H]1NC(C)=O: Fulfilled
C=CCNC(=O)C1=C[C@@H](OC(CC)CC)[C@H](NC(C)=O)[C@@H](N)C1: Fulfilled

Then there is this compound:
Threshold test, IC50 < 10 µM: CCC(CC)O[C@@H]1C=C(C(=O)NCc2cccc(F)c2)C[C@H](N)[C@H]1NC(C)=O
Fulfilled
